Attribution: paper PMC10441475

Below, each entry is listed with its recorded Kd.
target.desc: METTL3 R471H;METTL14 WT (Homo sapiens;Homo sapiens, UniProt Q86U44;Q9HCE5 1-580;1-456, R471H|)
Sequence (Q86U44 whole entry R471H, chain 1 of 2): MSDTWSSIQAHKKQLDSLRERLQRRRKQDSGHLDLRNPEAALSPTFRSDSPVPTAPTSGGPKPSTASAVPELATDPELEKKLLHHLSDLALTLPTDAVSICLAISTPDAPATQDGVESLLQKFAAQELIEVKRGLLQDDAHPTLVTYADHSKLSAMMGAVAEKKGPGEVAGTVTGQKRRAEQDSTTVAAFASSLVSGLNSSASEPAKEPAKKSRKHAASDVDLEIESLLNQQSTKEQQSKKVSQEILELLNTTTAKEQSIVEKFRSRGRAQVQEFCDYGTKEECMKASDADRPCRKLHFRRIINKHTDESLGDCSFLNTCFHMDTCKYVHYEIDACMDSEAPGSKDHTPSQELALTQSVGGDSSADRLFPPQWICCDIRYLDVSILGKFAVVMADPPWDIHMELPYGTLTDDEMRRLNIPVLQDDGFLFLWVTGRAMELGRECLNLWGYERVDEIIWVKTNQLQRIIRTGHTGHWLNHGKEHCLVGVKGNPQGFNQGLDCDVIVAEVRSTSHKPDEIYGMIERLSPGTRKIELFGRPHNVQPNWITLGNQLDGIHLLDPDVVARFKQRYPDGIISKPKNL
Sequence (Q9HCE5 whole entry, chain 2 of 2): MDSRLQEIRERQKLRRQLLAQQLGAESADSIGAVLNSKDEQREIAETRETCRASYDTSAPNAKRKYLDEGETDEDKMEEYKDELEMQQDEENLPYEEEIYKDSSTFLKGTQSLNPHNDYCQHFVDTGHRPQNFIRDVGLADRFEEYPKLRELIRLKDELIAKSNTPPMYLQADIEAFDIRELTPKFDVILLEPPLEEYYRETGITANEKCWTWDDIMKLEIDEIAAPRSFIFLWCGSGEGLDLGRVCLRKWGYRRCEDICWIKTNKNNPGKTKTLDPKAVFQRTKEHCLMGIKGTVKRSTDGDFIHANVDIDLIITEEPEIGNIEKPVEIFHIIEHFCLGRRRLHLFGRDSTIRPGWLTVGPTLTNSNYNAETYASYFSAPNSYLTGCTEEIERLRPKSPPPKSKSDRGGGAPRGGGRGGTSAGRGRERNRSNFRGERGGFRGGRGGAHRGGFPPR
experimental.protocol: SPR; two-state model; FP: 10 mM HEPES pH 7.5, 50 mM KCl, 5 nM RNA; SPR: 10 mM HEPES pH 7.5, 150 mM KCl, 0.05% P20, 25 C; 2-Ap: 50 mM Tris pH 8.0, 10 mM MgCl2, 0.5 uM RNA, read at 37
conditions: protein: recombinant;recombinant; tags: His-tag removed by TEV;; copies: 1;1; linear single strand
A number alone suffices; assume nM.

Challenge: // returns reported Kd for input CUUCGGACUCUGCU (ssRNA, m6A at position 7) [r6T-m6A (biotinyl)]
Response given: 171

Challenge: Now consider CUUCGGACUCUGCU (ssRNA) [r6T (biotinyl)] and answer again.
Response given: 108
